Target: GPR119 (Homo sapiens, UniProt Q8TDV5)
Sequence (Q8TDV5 1-335): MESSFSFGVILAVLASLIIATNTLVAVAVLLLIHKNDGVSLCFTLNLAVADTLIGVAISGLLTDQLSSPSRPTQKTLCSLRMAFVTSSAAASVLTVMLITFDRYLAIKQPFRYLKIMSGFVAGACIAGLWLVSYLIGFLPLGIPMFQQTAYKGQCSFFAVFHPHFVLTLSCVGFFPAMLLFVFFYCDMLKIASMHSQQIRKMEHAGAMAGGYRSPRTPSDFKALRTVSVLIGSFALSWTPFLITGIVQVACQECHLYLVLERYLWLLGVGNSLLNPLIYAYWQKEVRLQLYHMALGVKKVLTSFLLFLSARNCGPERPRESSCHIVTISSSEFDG
Assay: PathHunter β-arrestin assay (enzyme fragment complementation, β-galactosidase reporter) monitoring activation of GPR119
Format: cell-based
Parameters: β-galactosidase enzyme fragment for EFC (by own knowledge the ProLink tag, fused to the receptor's C-terminus in PathHunter lines)
Conditions: Table B-3
MEASUREMENT TYPE: EC50 (nM)

Below, each entry is followed by its recorded EC50 result.
>  <COMPOUND>
[O-][S@@+]1COc2cc(-c3ccc(OC[C@H]4CCN(c5ncc(Cl)cn5)C4)c(F)c3)ccc21 [Example B-86]

>  <UNIT DESCRIPTOR>
nM

>  <EC50>
108

$$$$
>  <COMPOUND>
COc1cnc(N2CCC(COc3ccc(-c4ccc5c(c4)OC[S@@+]5[O-])cc3F)CC2)nc1 [Example B-50]

>  <UNIT DESCRIPTOR>
nM

>  <EC50>
16.4

$$$$
>  <COMPOUND>
[O-][S@@+]1COc2cc(-c3ccc(OCC4CCN(c5ncc(Cl)cn5)CC4)c(F)c3)ccc21 [Example B-34]

>  <UNIT DESCRIPTOR>
nM

>  <EC50>
35.7

$$$$
>  <COMPOUND>
CCc1ccnc(N2CC[C@H](COc3ccc(-c4ccc5c(c4)OC[S@+]5[O-])cc3F)C2)n1 [Example B-85]

>  <UNIT DESCRIPTOR>
nM

>  <EC50>
657

$$$$
>  <COMPOUND>
CCc1cnc(N2CC[C@H](COc3ccc(-c4ccc5c(c4)OC[S@@+]5[O-])cc3)C2)nc1 [Example B-91]

>  <UNIT DESCRIPTOR>
nM

>  <EC50>
222

$$$$

[I] CCc1ccnc(N2CC[C@H](COc3ccc(-c4ccc5c(c4)OC[S@@+]5[O-])cc3F)C2)n1 [Example B-84]
[II] CCc1cnc(N2CC[C@H](COc3ccc(-c4ccc5c(c4)OC[S@@+]5[O-])cc3F)C2)nc1 [Example B-75]
*Q* Would you kindly point out which of I and II has the smaller EC50 figure? Refer to your chosen entry by its label in the reply.
*A* II
(II: 60 nM, I: 567 nM)

###

Target: GPR119 (Homo sapiens, UniProt Q8TDV5)
Assay: LANCE Ultra cAMP assay: stimulation of GPR119-mediated cAMP production in CHO cells stably expressing human GPR119 receptor
Format: cell-based
Settings: Table B-2 entries 1-14; protocol as described (800 000 cells/mL, 5 uL/well); CHO-GPR119 cells
Experimental: The potency of GPR119 receptor agonists was assessed by measuring the stimulation of GPR119-mediated cAMP production with LANCE Ultra cAMP assay (Perkin Elmer, TRF0264) in CHO cells stably expressing human GPR119 receptor (Chantest, cat. #A633). CHO-GPR119 cells were cultured in DMEM/F12 medium supplemented with 10% FBS and 1% NEAA at 37° C., 5% CO2, aliquoted and frozen in liquid nitrogen. […]
MEASUREMENT TYPE: EC50 (nM)

>  <MOLECULE>
[O-][S@+]1COc2cc(-c3ccc(OCC4CCN(c5ncc(Cl)cn5)CC4)c(F)c3)ccc21 [Example B-32]

>  <MEASUREMENT TYPE>
EC50

>  <UNIT DESCRIPTOR>
nM

>  <QUANTITATIVE RESULT>
1.2

$$$$

[A] [O-][S@@+]1COc2cc(-c3ccc(OCC4CCN(c5ncc(Cl)cn5)CC4)c(F)c3)ccc21 [Example B-34]
[B] [O-][S+]1COc2cc(-c3ccc(OCC4CCN(c5ccc(C(F)(F)F)cn5)CC4)c(F)c3)ccc21 (stereo not shown) [Example B-29]
*Q* Among A and B , which shows a numerically higher EC50 result? Refer to your chosen entry by its label in the reply.
*A* B

###

Listing of recorded pEC50 by entry.
target: GPR119 (Homo sapiens); experiment: LANCE Ultra cAMP assay: stimulation of GPR119-mediated cAMP production in CHO cells stably expressing human GPR119 receptor; type: cell-based; conditions: Table B-2 entries 1-14; protocol as described (800 000 cells/mL, 5 uL/well); CHO-GPR119 cells
pEC50: −log10 of the molar value.

*Q* Report pEC50 for CCc1ccnc(N2CCC(COc3ccc(-c4ccc5c(c4)OCS5)cc3F)CC2)n1 [Example B-26] please.
*A* < 6.30

*Q* Next compound: Fc1cc(-c2ccc3c(c2)OCS3)ccc1OCC1CCN(c2ncc(Cl)cn2)CC1 [Example B-12]
*A* 6.55

*Q* Next compound: CC(C)(C)OC(=O)N1CCC(COc2ccc(-c3ccc4c(c3)OC[S+]4[O-])cc2F)CC1 (stereo not drawn) [Example B-17]
*A* < 7.00

###

target: UniProtKB Q8TDV5; assay: LANCE Ultra cAMP assay: stimulation of GPR119-mediated cAMP production in CHO cells stably expressing human GPR119 receptor; assay type: cell-based; conditions: Table A-2 entries 1-17; protocol as described (800 000 cells/mL, 5 uL/well); CHO-GPR119 cells
MEASUREMENT TYPE: EC50 (nM)

Below, each entry is followed by its recorded EC50 result.
>  <MOLECULE>
O=S1(=O)COc2cc(-c3ccc(OCC4CCN(c5ncncn5)CC4)c(F)c3)ccc21 [A-42]

>  <STUDY TARGET>
UniProtKB Q8TDV5

>  <MEASUREMENT TYPE>
EC50

>  <QUANTITATIVE RESULT>
102

$$$$
>  <MOLECULE>
O=S1(=O)COc2cc(-c3ccc(N4CCN(c5ncc(Cl)cn5)CC4)c(F)c3)ccc21 [Example A-65]

>  <STUDY TARGET>
UniProtKB Q8TDV5

>  <MEASUREMENT TYPE>
EC50

>  <QUANTITATIVE RESULT>
112

$$$$

[1] CCc1cnc(N2CCC(COc3ccc(-c4ccc5c(c4)OCS5(=O)=O)cc3F)CC2)nc1 [A-24]
[2] CN(C)C(=O)N1CCC(COc2ccc(-c3ccc4c(c3)OCS4(=O)=O)cc2F)CC1 [A-14]
[3] O=S1(=O)COc2ccc(-c3ccc(OCC4CCN(c5ncc(Cl)cn5)CC4)c(F)c3)cc21 [A-40]
*Q* Number of molecules to sort: 3. Sort criterion: EC50, ascending. Give the order by naming the labels one after another as requested.
*A* 1, 2, 3
